- Tested on: green foxtail
- procedure.details: Test C postemergence
- Assay type: in vivo, Setaria viridis
- reported.conditions: 125 g ai/ha, postemergence, 10 days; 0 to 100 scale, 0 no effect, 100 complete control
measurement.type: Plant response rating, Foxtail, Green
Provide a numeric answer; units are not to be included.

Qu. Please provide the recorded Plant response rating, Foxtail, Green for CCOCc1ncn(-c2ccc(C)c(C(=O)N3C[C@H](C)Oc4c(Cl)cccc43)c2)n1 [Compound 294] , tested on green foxtail.
Ans. 10

Qu. Please provide the recorded Plant response rating, Foxtail, Green for CCc1c(C)cc(-n2cnc(C(C)C)n2)cc1C(=O)N1C[C@H](C)Oc2c(Cl)cccc21 [Compound 179] , tested on green foxtail.
Ans. 10

Qu. Please provide the recorded Plant response rating, Foxtail, Green for Cc1cccc2c1O[C@@H](C)CN2C(=O)c1cc(-n2cnc(C(C)C)n2)cc2occc12 [Compound 195] , tested on green foxtail.
Ans. 50

Qu. Please provide the recorded Plant response rating, Foxtail, Green for Cc1ccc(-n2cnc(C(C)(F)F)n2)cc1C(=O)N1C[C@H](C)Oc2c(Cl)cccc21 [Compound 248] , tested on green foxtail.
Ans. 90
